- EXPERIMENT DESCRIPTION: in vivo
- ASSAY SETUP: BALB/c nude, mouse, in vivo, iv, total radioactivity, % ID/g Tumor
Binary call on tissue uptake at 4 h with cut-off 10 %ID/g: strictly below means 1 (yes), and equality or higher means 0 (no).

[[record]]
compound = "C[C@@H](O)[C@H](NC(=O)[C@@H]1CSSC[C@H](NC(=O)[C@@H](Cc2ccccc2)NC(=O)COCCOCCNC(=O)COCCOCCNC(=O)[C@H](CCCCNC(=O)c2cccc(NC(=O)N[C@@H]3CN(C4CCCCC4)c4ccccc4N(CC(=O)C(C)(C)C)C3=O)c2)NC(=O)CN2CCN(CC(=O)O)CCN(CC(=O)O)CCN(CC(=O)O)CC2)C(=O)N[C@@H](Cc2ccc(O)cc2)C(=O)N[C@H](Cc2c[nH]c3ccccc23)C(=O)N[C@@H](CCCCN)C(=O)N[C@@H]([C@@H](C)O)C(=O)N1)C(=O)O [Compound 177Lu-I-39, metal not drawn]"
cat = "0 (no)"

[[record]]
compound = "CCCC[C@H](NC(=O)[C@H](Cc1c[nH]c2ccccc12)NC(=O)CNC(=O)[C@H](Cc1ccc(O)cc1)NC(=O)[C@H](C)NC(=O)[C@@H](CCC(=O)O)NC(=O)[C@@H](CCC(=O)O)NC(=O)[C@@H](CCC(=O)O)NC(=O)[C@@H](CCC(=O)O)NC(=O)[C@@H](CCC(=O)O)NC(=O)[C@@H](CCC(=O)O)NC(=O)CN1CCN(CC(=O)O)CCN(CC(=O)O)CCN(CC(=O)O)CC1)C(=O)N[C@@H](CC(=O)O)C(=O)N[C@@H](Cc1ccccc1)C(N)=O [^177Lu-C-2, metal not drawn, reference compound]"
cat = "1 (yes)"

[[record]]
compound = "C[C@@H](O)[C@H](NC(=O)[C@@H]1CSSC[C@H](NC(=O)[C@@H](Cc2ccccc2)NC(=O)[C@H](CCCCNC(=O)COCCOCCNC(=O)c2cccc(NC(=O)N[C@@H]3CN(C4CCCCC4)c4ccccc4N(CC(=O)C(C)(C)C)C3=O)c2)NC(=O)CN2CCN(CC(=O)O)CCN(CC(=O)O)CCN(CC(=O)O)CC2)C(=O)N[C@@H](Cc2ccc(O)cc2)C(=O)N[C@H](Cc2c[nH]c3ccccc23)C(=O)N[C@@H](CCCCN)C(=O)N[C@@H]([C@@H](C)O)C(=O)N1)C(=O)O [^177Lu-I-36, metal not drawn]"
cat = "0 (no)"

[[record]]
compound = "CC(C)(C)C(=O)CN1C(=O)[C@H](NC(=O)Nc2cccc(C(=O)N[C@@H](CCC(=O)N[C@@H](CCC(=O)N[C@@H](CCC(=O)N[C@@H](CCCCNC(=O)COCCOCCNC(=O)COCCOCCNC(=O)CCC(C(=O)O)N3CCN(CC(=O)O)CCN(CC(=O)O)CCN(CC(=O)O)CC3)C(N)=O)C(=O)O)C(=O)O)C(=O)O)c2)CN(C2CCCCC2)c2ccccc21 (stereo partly shown) [^177Lu-C-4, metal not drawn, reference compound]"
cat = "1 (yes)"

[[record]]
compound = "C[C@@H](O)[C@H](NC(=O)[C@@H]1CSSC[C@H](NC(=O)[C@@H](Cc2ccccc2)NC(=O)COCCOCCNC(=O)[C@H](CCCCNC(=O)c2cccc(NC(=O)N[C@@H]3CN(C4CCCCC4)c4ccccc4N(CC(=O)C(C)(C)C)C3=O)c2)NC(=O)CN2CCN(CC(=O)O)CCN(CC(=O)O)CCN(CC(=O)O)CC2)C(=O)N[C@@H](Cc2ccc(O)cc2)C(=O)N[C@H](Cc2c[nH]c3ccccc23)C(=O)N[C@@H](CCCCN)C(=O)N[C@@H]([C@@H](C)O)C(=O)N1)C(=O)O [Compound 177Lu-I-37, metal not drawn]"
cat = "0 (no)"

[[record]]
compound = "C[C@@H](O)[C@H](NC(=O)[C@@H]1CSSC[C@H](NC(=O)[C@@H](Cc2ccccc2)NC(=O)CN2CCN(CC(=O)O)CCN(CC(=O)O)CCN(CC(=O)O)CC2)C(=O)N[C@@H](Cc2ccc(O)cc2)C(=O)N[C@H](Cc2c[nH]c3ccccc23)C(=O)N[C@@H](CCCCN)C(=O)N[C@@H]([C@@H](C)O)C(=O)N1)C(=O)O [^177Lu-C-1, metal not drawn, reference compound]"
cat = "0 (no)"

[[record]]
compound = "C[C@@H](O)[C@H](NC(=O)[C@@H]1CSSC[C@H](NC(=O)[C@@H](Cc2ccccc2)NC(=O)[C@H](CCCCNC(=O)c2cccc(NC(=O)N[C@@H]3CN(C4CCCCC4)c4ccccc4N(CC(=O)C(C)(C)C)C3=O)c2)NC(=O)COCCOCCNC(=O)CN2CCN(CC(=O)O)CCN(CC(=O)O)CCN(CC(=O)O)CC2)C(=O)N[C@@H](Cc2ccc(O)cc2)C(=O)N[C@H](Cc2c[nH]c3ccccc23)C(=O)N[C@@H](CCCCN)C(=O)N[C@@H]([C@@H](C)O)C(=O)N1)C(=O)O [^177Lu-I-35, metal not drawn]"
cat = "0 (no)"

